meta.source: ChEMBL document CHEMBL4368923

# Test system: Human immunodeficiency virus 1
# experiment.notes: Antiviral activity against HIV1 harboring reverse transcriptase Y188L mutant infected in human MT4 cells assessed as inhibition of virus-induced cytotoxicity after 5 days by MTT assay
# Format: functional, organism-based
# condition.description: Human immunodeficiency virus 1, MT4, 120 h
reported.property: EC50

Look over these answered cases.
>>> reported("Cc1cc(C#N)cc(C)c1Oc1ccnc(Nc2ccc(CN3CCC(NS(N)(=O)=O)CC3)cc2)n1")
"> 6.97 µM"
>>> reported("Cc1ccnc2c1NC(=O)c1cccnc1N2C1CC1")
"> 15 µM"
>>> reported("Cc1cc(/C=C/C#N)cc(C)c1Oc1ccnc(Nc2ccc(CN3CCN(C(=O)OC(C)(C)C)CC3)cc2)n1")
"> 4.03 µM"

Consider the molecule shown here: Cc1cc(/C=C/C#N)cc(C)c1Oc1ccnc(Nc2ccc(CN3CCC(NS(C)(=O)=O)CC3)cc2)n1 What is its recorded EC50?
8.35 µM

EC50 for Cc1cc(C#N)cc(C)c1Oc1ccnc(Nc2ccc(CN3CCC(NS(C)(=O)=O)CC3)cc2)n1 ?
≥ 7.8 µM

Which measured EC50 value corresponds to Cc1cc(C#N)cc(C)c1Oc1ccnc(Nc2ccc(CN3CCN(S(C)(=O)=O)CC3)cc2)n1 ?
> 5.22 µM

Look at this molecule and give its reported EC50. Cc1cc(C#N)cc(C)c1Oc1ccnc(Nc2ccc(CN3CCOCC3)cc2)n1
4.93 µM

If you can, please state the reported EC50 value of Cc1cc(/C=C/C#N)cc(C)c1Oc1ccnc(Nc2ccc(CN3CCC(NC(=O)OC(C)(C)C)CC3)cc2)n1 .
> 4.27 µM

Quick check: EC50 of Cc1cc(/C=C/C#N)cc(C)c1Oc1ccnc(Nc2ccc(CN3CCN(S(C)(=O)=O)CC3)cc2)n1 ?
1.62 µM

---

Known EC50 of a selection of molecules
# Tested on: Human immunodeficiency virus 1
# experiment.notes: Antiviral activity against HIV1 harboring reverse transcriptase Y188L mutant infected in human MT4 cells assessed as inhibition of virus-induced cytotoxicity after 5 days by MTT assay
# Format: functional, organism-based
# condition.description: Human immunodeficiency virus 1, MT4, 120 h
Number in nM, nothing else.

>>> reported("Cc1cc(C#N)cc(C)c1Oc1nc(Nc2ccc(C#N)cc2)nc(N)c1Br")
27
>>> reported("O=C1Nc2ccc(Cl)cc2[C@@](C#CC2CC2)(C(F)(F)F)O1")
240

Now consider the entry below.
Consider the molecule shown here: Cc1cn([C@H]2C[C@H](N=[N+]=[N-])[C@@H](CO)O2)c(=O)[nH]c1=O What is its recorded EC50?
5.1

---

# experiment.notes: Solubility of the compound in deionized water at pH 7
reported.property: solubility

>>> reported("Cc1cc(C#N)cc(C)c1Oc1nc(Nc2ccc(C#N)cc2)nc(N)c1Br")
"< 1 µg/mL"

Any idea what its solubility is? The compound is Cc1cc(C#N)cc(C)c1Oc1ccnc(Nc2ccc(CN3CCOCC3)cc2)n1
33.4 µg/mL

---

# experiment.notes: Solubility in water at pH 7
# Format: physicochemical
reported.property: solubility

Fill in: solubility of Cc1cc(C#N)cc(C)c1Oc1nc(Nc2ccc(C#N)cc2)nc(N)c1Br [ETRAVIRINE] is ___
< 1 µg/mL

---

# experiment.notes: Cytotoxicity against human MT4 cells assessed as reduction in cell viability after 5 days by MTT assay
# Assay type: cell-based
reported.property: CC50 at 120 h

Solved entries (count: 2):
>>> reported("Cc1cc(C#N)cc(C)c1Oc1ccnc(Nc2ccc(CNC3CCN(C(=O)OC(C)(C)C)CC3)cc2)n1")
"3.51 µM"
>>> reported("Cc1cc(C#N)cc(C)c1Oc1ccnc(Nc2ccc(CN3CCOCC3)cc2)n1")
"23 µM"

Now, please, on to the next molecule.
Report CC50 at 120 h for Cc1cc(C#N)cc(C)c1Oc1nc(Nc2ccc(C#N)cc2)nc(N)c1Br [ETRAVIRINE] please.
> 4.59 µM
